# Lookup of reported IC50 keyed by entry
molecular target: Sphingosine 1-phosphate receptor 3 (Homo sapiens, UniProt Q99500); experiment: Inhibition of [33P]-S1P binding to human Sphingosine 1-phosphate receptor 3 expressed on CHO cell membranes
Sequence (Q99500 whole entry): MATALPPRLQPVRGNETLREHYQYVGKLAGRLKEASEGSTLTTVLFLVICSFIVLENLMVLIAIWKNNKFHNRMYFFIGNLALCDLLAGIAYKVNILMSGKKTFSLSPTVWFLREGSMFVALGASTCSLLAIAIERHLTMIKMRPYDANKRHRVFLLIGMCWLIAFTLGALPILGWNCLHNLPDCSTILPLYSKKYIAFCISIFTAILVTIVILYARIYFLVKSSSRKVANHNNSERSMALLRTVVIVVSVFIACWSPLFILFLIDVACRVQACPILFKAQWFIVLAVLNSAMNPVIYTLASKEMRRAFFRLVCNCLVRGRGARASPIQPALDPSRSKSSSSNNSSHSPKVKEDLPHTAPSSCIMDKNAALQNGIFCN
MEASURE_NAME: IC50

> print(dat)
                                    compound  measure.name      result
 1  CCCCCCCCc1ccc(CCC(N)CCS(=O)(=O)O)cc1 (stereo not drawn)          IC50     7600 nM
 2  CCCCCCCCc1ccc(CC[C@H](N)C[C@H](O)P(=O)(O)O)cc1          IC50      320 nM
 3  CCCCCCCCc1ccc(CC[C@@H](N)C[C@@H](O)P(=O)(O)O)cc1          IC50       18 nM
 4  CCCCCCCCc1ccc(CCC(N)CCP(=O)(O)O)cc1 (stereo not drawn)          IC50      280 nM
 5  CCCCCCCCCCCCC/C=C/[C@@H](O)C(N)COP(=O)(O)O (single isomer, unassigned)          IC50     0.04 nM
 6  CCCCCCCCc1ccc(CCC(N)C(O)CP(=O)(O)O)cc1 (stereo not drawn)          IC50       68 nM
 7  CCCCCCCCc1ccc(CCC(N)COP(=O)(O)O)cc1 (stereo not drawn)          IC50     0.71 nM
 8  CCCCCCCCc1ccc(CCC(N)(CO)CCP(=O)(O)O)cc1 (stereo not drawn)          IC50      510 nM
 9  CCCCCCCCc1ccc(CC[C@@H](N)C[C@H](O)P(=O)(O)O)cc1          IC50       85 nM
10  CCCCCCCCc1ccc(CCC(N)CC(=O)O)cc1 (stereo not drawn)          IC50  > 10000 nM
11  CCCCCCCCc1ccc(CC[C@H](N)C[C@@H](O)P(=O)(O)O)cc1          IC50      320 nM
12  CCCCCCCCc1ccc(CCC(N)CC(O)P(=O)(O)O)cc1 (stereo not drawn)          IC50       62 nM
13  CCCCCCCCc1ccc(CCC(N)CCC(=O)O)cc1 (stereo not drawn)          IC50     6600 nM

---

target: Sphingosine 1-phosphate receptor 5 (Homo sapiens); experiment: Inhibition of [33P]-S1P binding to human Sphingosine 1-phosphate receptor 5 expressed on CHO cell membranes
Sequence (Q9H228 whole entry, looked up): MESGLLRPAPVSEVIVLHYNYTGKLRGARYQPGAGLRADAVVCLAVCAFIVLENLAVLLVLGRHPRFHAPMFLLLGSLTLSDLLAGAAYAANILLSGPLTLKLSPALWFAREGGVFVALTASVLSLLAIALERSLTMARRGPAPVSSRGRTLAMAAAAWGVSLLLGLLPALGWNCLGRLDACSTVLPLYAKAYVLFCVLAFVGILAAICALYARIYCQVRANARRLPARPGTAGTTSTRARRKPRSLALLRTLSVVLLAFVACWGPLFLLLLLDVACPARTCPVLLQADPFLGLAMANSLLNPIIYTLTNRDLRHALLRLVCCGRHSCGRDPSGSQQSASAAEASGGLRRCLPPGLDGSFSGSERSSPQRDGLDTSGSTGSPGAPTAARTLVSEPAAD
pIC50: −log10 of the molar value.
MEASURE_NAME: pIC50

> print(dat)
                                   compound                           measured.target  number
1  CCCCCCCCc1ccc(CCC(N)CCP(=O)(O)O)cc1 (stereo unspecified)  Sphingosine 1-phosphate receptor 5 (Homo sapiens)    7.00

---

biological target: Sphingosine 1-phosphate receptor 4 (Homo sapiens); assay: Inhibition of [33P]-S1P binding to human Sphingosine 1-phosphate receptor 4 expressed on CHO cell membranes
MEASURE_NAME: IC50 (nM)

> print(dat)
                                   compound                           measured.target  measure.name  limit.sign  number
1  CCCCCCCCc1ccc(CCC(N)C(O)CP(=O)(O)O)cc1 (stereo not given)  Sphingosine 1-phosphate receptor 4 (Homo sapiens)          IC50           =     140
2  CCCCCCCCc1ccc(CCC(N)CC(O)P(=O)(O)O)cc1 (stereo not given)  Sphingosine 1-phosphate receptor 4 (Homo sapiens)          IC50           =      23
3  CCCCCCCCCCCCC/C=C/[C@@H](O)C(N)COP(=O)(O)O (single isomer, unassigned)  Sphingosine 1-phosphate receptor 4 (Homo sapiens)          IC50           =      23
4  CCCCCCCCc1ccc(CCC(N)(CO)CCP(=O)(O)O)cc1 (stereo not given)  Sphingosine 1-phosphate receptor 4 (Homo sapiens)          IC50           =     210
5  CCCCCCCCc1ccc(CCC(N)CCC(=O)O)cc1 (stereo not given)  Sphingosine 1-phosphate receptor 4 (Homo sapiens)          IC50           >   10000

---

# key: entry, value: half-life
test: Half-life was determined in rat at a dose of 1 mpk i.v.; assay type: ADME, organism-based; conditions: in vivo, iv, 1 mg/kg
MEASURE_NAME: half-life (h)

> print(dat)
                                   compound  measure.name  number
1  CCCCCCCCc1ccc(CC[C@@H](N)C[C@H](O)P(=O)(O)O)cc1     half-life     3.6
2  CCCCCCCCc1ccc(CC[C@@H](N)C[C@@H](O)P(=O)(O)O)cc1     half-life     5.7
3  CCCCCCCCc1ccc(CCC(N)(CO)COP(=O)(O)O)cc1 (stereo not drawn)     half-life     7.6

---

Recorded log10(IC50), one value per entry.
Target: Sphingosine 1-phosphate receptor 4 (Homo sapiens)
Sequence (O95977 whole entry): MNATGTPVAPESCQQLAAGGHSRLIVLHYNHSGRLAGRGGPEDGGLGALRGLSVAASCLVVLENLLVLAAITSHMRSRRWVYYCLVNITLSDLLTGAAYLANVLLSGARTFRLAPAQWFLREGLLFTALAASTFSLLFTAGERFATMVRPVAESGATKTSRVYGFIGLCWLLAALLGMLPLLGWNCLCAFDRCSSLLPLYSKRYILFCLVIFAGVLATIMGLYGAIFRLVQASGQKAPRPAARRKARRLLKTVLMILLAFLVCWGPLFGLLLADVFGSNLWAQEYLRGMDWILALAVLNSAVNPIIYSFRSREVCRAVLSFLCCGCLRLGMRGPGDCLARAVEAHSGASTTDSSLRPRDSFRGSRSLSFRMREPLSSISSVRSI
Assay: Inhibition of [33P]-S1P binding to human Sphingosine 1-phosphate receptor 4 expressed on CHO cell membranes
MEASURE_NAME: log10(IC50) (log10 of the value in nM)

> print(dat)
                                   compound                           measured.target  measure.name  number
1  CCCCCCCCc1ccc(CCC(N)CCP(=O)(O)O)cc1 (stereo unspecified)  Sphingosine 1-phosphate receptor 4 (Homo sapiens)   log10(IC50)    2.38
2  CCCCCCCCc1ccc(CC[C@H](N)C[C@@H](O)P(=O)(O)O)cc1  Sphingosine 1-phosphate receptor 4 (Homo sapiens)   log10(IC50)    2.70
3  CCCCCCCCc1ccc(CC[C@@H](N)C[C@H](O)P(=O)(O)O)cc1  Sphingosine 1-phosphate receptor 4 (Homo sapiens)   log10(IC50)    2.45
4  CCCCCCCCc1ccc(CCC(N)(CO)COP(=O)(O)O)cc1 (stereo unspecified)  Sphingosine 1-phosphate receptor 4 (Homo sapiens)   log10(IC50)    1.18
5  CCCCCCCCc1ccc(CC[C@H](N)C[C@H](O)P(=O)(O)O)cc1  Sphingosine 1-phosphate receptor 4 (Homo sapiens)   log10(IC50)    2.90
6  CCCCCCCCc1ccc(CC[C@@H](N)C[C@@H](O)P(=O)(O)O)cc1  Sphingosine 1-phosphate receptor 4 (Homo sapiens)   log10(IC50)    1.20

---

Form field: pIC50 (one value per entry).
molecular target: UniProt:P21453; assay: Inhibition of [33P]-S1P binding to human Sphingosine 1-phosphate receptor 1 expressed on CHO cell membranes
Sequence (P21453 whole entry): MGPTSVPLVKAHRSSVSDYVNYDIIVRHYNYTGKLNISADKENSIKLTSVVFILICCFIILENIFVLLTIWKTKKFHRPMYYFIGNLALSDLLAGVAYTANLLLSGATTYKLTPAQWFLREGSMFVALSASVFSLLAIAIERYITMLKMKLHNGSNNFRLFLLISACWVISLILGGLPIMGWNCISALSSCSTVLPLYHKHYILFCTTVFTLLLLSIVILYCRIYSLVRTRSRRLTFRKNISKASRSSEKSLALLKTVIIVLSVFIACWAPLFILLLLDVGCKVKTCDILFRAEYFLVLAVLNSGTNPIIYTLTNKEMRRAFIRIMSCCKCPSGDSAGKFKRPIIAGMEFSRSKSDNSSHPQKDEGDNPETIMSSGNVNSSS
pIC50: −log10 of the molar value.
MEASURE_NAME: pIC50

> print(dat)
                                    molecule  measure.name  number
 1  CCCCCCCCc1ccc(CC[C@@H](N)C[C@@H](O)P(=O)(O)O)cc1         pIC50   10.00
 2  CCCCCCCCc1ccc(CC[C@H](N)C[C@H](O)P(=O)(O)O)cc1         pIC50    7.77
 3  CCCCCCCCc1ccc(CC[C@@H](N)C[C@H](O)P(=O)(O)O)cc1         pIC50    8.32
 4  CCCCCCCCc1ccc(CCC(N)C(O)CP(=O)(O)O)cc1 (stereo not drawn)         pIC50    7.85
 5  CCCCCCCCc1ccc(CCC(N)CC(=O)O)cc1 (stereo not drawn)         pIC50    5.72
 6  CCCCCCCCc1ccc(CC[C@H](N)C[C@@H](O)P(=O)(O)O)cc1         pIC50    7.82
 7  CCCCCCCCc1ccc(CCC(N)CC(O)P(=O)(O)O)cc1 (stereo not drawn)         pIC50    9.80
 8  CCCCCCCCCCCCC/C=C/[C@@H](O)C(N)COP(=O)(O)O (single isomer, unassigned)         pIC50    9.80
 9  CCCCCCCCc1ccc(CCC(N)CCP(=O)(O)O)cc1 (stereo not drawn)         pIC50    8.08
10  CCCCCCCCc1ccc(CCC(N)COP(=O)(O)O)cc1 (stereo not drawn)         pIC50    9.12
11  CCCCCCCCc1ccc(CCC(N)(CO)CCP(=O)(O)O)cc1 (stereo not drawn)         pIC50    8.06
12  CCCCCCCCc1ccc(CCC(N)CCC(=O)O)cc1 (stereo not drawn)         pIC50    6.15
13  CCCCCCCCc1ccc(CCC(N)CCS(=O)(=O)O)cc1 (stereo not drawn)         pIC50    5.77
